Cited source: patent US20240385190A1

In this section we review reported absorbance values for a set of binders.
test-system: T1, Rat
T1 construct: also called rat EphA4 extracellular domain-SEAP-His protein
test: ELISA
readout-kind: absorbance

- KPEP11_09 (antibody, V domains shown, Rabbit IgG; also called anti-human EphA4 rabbit monoclonal antibody KPEP11_09) VH: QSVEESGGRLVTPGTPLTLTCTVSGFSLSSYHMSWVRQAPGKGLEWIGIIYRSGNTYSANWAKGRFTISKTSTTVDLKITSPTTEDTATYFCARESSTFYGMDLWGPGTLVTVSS VL: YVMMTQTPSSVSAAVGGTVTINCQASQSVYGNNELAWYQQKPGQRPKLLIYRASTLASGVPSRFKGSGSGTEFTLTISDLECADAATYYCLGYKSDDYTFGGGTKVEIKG: 0.064
- KPEP11_12 (antibody, V domains shown, Rabbit IgG; also called anti-human EphA4 rabbit monoclonal antibody KPEP11_12) VH: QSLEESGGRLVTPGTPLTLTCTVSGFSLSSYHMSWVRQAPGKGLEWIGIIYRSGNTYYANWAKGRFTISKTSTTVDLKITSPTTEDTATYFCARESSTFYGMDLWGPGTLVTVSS VL: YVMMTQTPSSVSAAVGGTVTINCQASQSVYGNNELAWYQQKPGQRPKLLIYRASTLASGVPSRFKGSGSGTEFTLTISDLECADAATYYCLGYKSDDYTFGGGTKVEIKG: 0.054
- KPEP11_13 (antibody, V domains shown, Rabbit IgG; also called anti-human EphA4 rabbit monoclonal antibody KPEP11_13) VH: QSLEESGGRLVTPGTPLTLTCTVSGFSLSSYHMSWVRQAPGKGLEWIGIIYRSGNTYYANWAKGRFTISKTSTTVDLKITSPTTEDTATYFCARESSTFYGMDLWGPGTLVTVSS VL: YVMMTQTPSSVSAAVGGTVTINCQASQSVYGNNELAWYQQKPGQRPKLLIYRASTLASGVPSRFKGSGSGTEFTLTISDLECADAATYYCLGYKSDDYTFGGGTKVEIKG: 0.086
- KPEP11_07 (antibody, V domains shown, Rabbit IgG; also called anti-human EphA4 rabbit monoclonal antibody KPEP11_07) VH: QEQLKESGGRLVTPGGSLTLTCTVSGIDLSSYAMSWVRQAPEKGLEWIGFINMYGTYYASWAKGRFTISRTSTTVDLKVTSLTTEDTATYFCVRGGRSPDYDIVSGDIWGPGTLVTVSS VL: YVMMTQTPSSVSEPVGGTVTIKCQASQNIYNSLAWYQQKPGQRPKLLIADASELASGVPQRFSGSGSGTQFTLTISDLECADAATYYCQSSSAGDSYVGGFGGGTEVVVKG: 0.044
